Measured values drawn from patent US20250304620A1 for this set.

- Test system: Pseudomonas aeruginosa ATCC 27853
- measurement-description: Injectable formulations on mice infected with peritonitis
- Format: in vivo, ICR mice
- protocol-conditions: 5 mg/kg via tail vein, twice a day for 3 days, n = 10
Non-standard residues stand in square brackets, D forms with d. Residues, ends and D or L forms follow the SMILES beside them. dPhe(3,4-F2) = N[C@H](Cc1ccc(F)c(F)c1)C(=O)O; d2Nal = N[C@H](Cc1ccc2ccccc2c1)C(=O)O; dNle = CCCC[C@@H](N)C(=O)O
Can you tell me Number of mice that died on each day after infection: day 4 for the items I'm about to list?
// note: answer is a bare numeric in Mouse

Quick one: Number of mice that died on each day after infection: day 4 of C[C@H]1COc2c(N3CCN(C)CC3)c(F)cc3c(=O)c(C(=O)O)cn1c23 [Levofloxacin, reference compound] ?
1

Quick one: Number of mice that died on each day after infection: day 4 of CC(=O)N[C@H](CCCCN)C(=O)N[C@H](CCCCN)C(=O)N[C@H](CC(C)C)C(=O)N[C@H](CC(C)C)C(=O)N[C@H](Cc1ccc2ccccc2c1)C(=O)N[C@H](CCCCN)C(=O)N[C@H](CC(C)C)C(=O)N[C@H](CCCCN)C(=O)N[C@H](Cc1ccc2ccccc2c1)C(=O)N[C@H](CCCCN)C(=O)N[C@H](CCCCN)C(N)=O [LV-17] (Ac-[dK][dK][dL][dL][d2Nal][dK][dL][dK][d2Nal][dK][dK]-NH2) ?
1

Quick one: Number of mice that died on each day after infection: day 4 of CCCC[C@@H](NC(=O)[C@@H](CCCCN)NC(=O)[C@@H](CCCNC(=N)N)NC(C)=O)C(=O)N[C@H](CCCC)C(=O)N[C@H](Cc1ccc2ccccc2c1)C(=O)N[C@H](CCCNC(=N)N)C(=O)N[C@H](CCCC)C(=O)N[C@H](CCCCN)C(=O)N[C@H](Cc1ccc2ccccc2c1)C(=O)N[C@H](CCCNC(=N)N)C(=O)N[C@H](CCCCN)C(N)=O [LV-12] (Ac-[dR][dK][dNle][dNle][d2Nal][dR][dNle][dK][d2Nal][dR][dK]-NH2) ?
0

Quick one: Number of mice that died on each day after infection: day 4 of CC(=O)N[C@H](CCCNC(=N)N)C(=O)N[C@H](CCCCN)C(=O)N[C@H](CC(C)C)C(=O)N[C@H](CC(C)C)C(=O)N[C@H](Cc1ccc2ccccc2c1)C(=O)N[C@H](CCCNC(=N)N)C(=O)N[C@H](CC(C)C)C(=O)N[C@H](CCCCN)C(=O)N[C@H](Cc1ccc2ccccc2c1)C(=O)N[C@H](CCCNC(=N)N)C(=O)N[C@H](CCCCN)C(N)=O [LV-20] (Ac-[dR][dK][dL][dL][d2Nal][dR][dL][dK][d2Nal][dR][dK]-NH2) ?
0

Quick one: Number of mice that died on each day after infection: day 4 of CC(=O)N[C@H](CCCCN)C(=O)N[C@H](CCCCN)C(=O)N[C@H](CC(C)C)C(=O)N[C@H](CC(C)C)C(=O)N[C@H](Cc1ccc(F)c(F)c1)C(=O)N[C@H](CCCNC(=N)N)C(=O)N[C@H](CC(C)C)C(=O)N[C@H](CCCCN)C(=O)N[C@H](Cc1ccc(F)c(F)c1)C(=O)N[C@H](CCCNC(=N)N)C(=O)N[C@H](CCCCN)C(N)=O [LV-25] (Ac-[dK][dK][dL][dL][dPhe(3,4-F2)][dR][dL][dK][dPhe(3,4-F2)][dR][dK]-NH2) ?
0
